# target: human TYK2 (JH2domain-pseudokinase) (Homo sapiens (Human))
# Sequence (P29597 556-888): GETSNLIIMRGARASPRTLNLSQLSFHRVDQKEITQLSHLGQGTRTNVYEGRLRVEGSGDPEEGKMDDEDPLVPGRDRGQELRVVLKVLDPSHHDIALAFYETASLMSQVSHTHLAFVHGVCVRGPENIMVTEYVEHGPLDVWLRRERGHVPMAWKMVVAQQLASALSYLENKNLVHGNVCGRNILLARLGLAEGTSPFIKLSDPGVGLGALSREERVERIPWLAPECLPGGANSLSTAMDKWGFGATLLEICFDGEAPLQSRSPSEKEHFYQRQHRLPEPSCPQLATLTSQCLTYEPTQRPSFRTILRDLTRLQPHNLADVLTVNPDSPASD
# measurement protocol: TYK2 JH2 Domain Binding Assay (KINOMEscan)
reported endpoint: Kd

Completed entries (count: 6):
{"compound": "CNc1cc(Nc2cccn([C@H]3CCC[C@@H](OC)C3)c2=O)nc2c(C(=O)N[C@H]3CC[C@@H]3OC)cnn12 [I-1125]", "reported endpoint": "Kd", "assay result": "> 10 nM"}
{"compound": "CNc1cc(Nc2cccn([C@@H]3CCCC[C@@H]3OC)c2=O)nc2c(C(=O)NCC3(CO)CC3)cnn12", "reported endpoint": "Kd", "assay result": "1 to 10 nM"}
{"compound": "CNc1cc(Nc2cc(Cl)cnc2OC2CCOC2)nc2c(C(N)=O)cnn12 (centres unmarked)", "reported endpoint": "Kd", "assay result": "< 0.2 nM"}
{"compound": "CNc1cc(Nc2cccn([C@H]3CC[C@H](O)CC3)c2=O)nc2c(C(=O)N[C@H]3C[C@H]3F)cnn12", "reported endpoint": "Kd", "assay result": "< 0.2 nM"}
{"compound": "CNc1cc(Nc2cccn(-c3ncccc3F)c2=O)nc2c(C(=O)NCC(C)(C)CO)cnn12", "reported endpoint": "Kd", "assay result": "< 0.2 nM"}
{"compound": "CNc1cc(-c2nn(C3CCOCC3)c3ncccc23)nc2c(C(=O)NC3CC3)cnn12", "reported endpoint": "Kd", "assay result": "0.2 to 1 nM"}

Param readout= Kd; system= human TYK2 (JH2domain-pseudokinase) (Homo sapiens (Human)); entry= CNc1cc(-c2cn([C@H]3CCCOC3)c3ncccc23)nc2c(C(=O)N[C@@H]3CC[C@H]3OC)cnn12 ; returns value.
1 to 10 nM

Param readout= Kd; system= human TYK2 (JH2domain-pseudokinase) (Homo sapiens (Human)); entry= CNc1cc(Nc2cc(Cl)cn(-c3cnc(C(=O)N(C)C)cn3)c2=O)nc2c(C(=O)NC3CC3)cnn12 ; returns value.
< 0.2 nM

* * *

This listing pairs compounds with measured Kd.
# target: human TYK2 (JH2domain-pseudokinase) (Homo sapiens (Human))
# measurement protocol: TYK2 JH2 Domain Binding Assay (KINOMEscan)

Completed entries (count: 5):
{"compound": "[2H]C([2H])([2H])Oc1ncccc1Nc1cc(NC)n2ncc(C(=O)N[C@@H]3CC[C@H]3O)c2n1", "target": "human TYK2 (JH2domain-pseudokinase) (Homo sapiens (Human))", "Kd": "< 0.2 nM"}
{"compound": "CNc1cc(Nc2cccn([C@H]3CC[C@](C)(OC)CC3)c2=O)nc2c(C(=O)N[C@H]3CC[C@@H]3OC)cnn12", "target": "human TYK2 (JH2domain-pseudokinase) (Homo sapiens (Human))", "Kd": "< 0.2 nM"}
{"compound": "Cc1cc(Nc2cc(N)n3ncc(C(N)=O)c3n2)cc(N2CCCC2=O)n1", "target": "human TYK2 (JH2domain-pseudokinase) (Homo sapiens (Human))", "Kd": "> 10 nM"}
{"compound": "CNc1cc(Nc2cccn(-c3nc(C)c(C)s3)c2=O)nc2c(C(=O)NC3CC3)cnn12", "target": "human TYK2 (JH2domain-pseudokinase) (Homo sapiens (Human))", "Kd": "0.2 to 1 nM"}
{"compound": "CNc1cc(Nc2cccn(-c3ccccn3)c2=O)nc2c(C(=O)N[C@@H]3CC[C@H]3O)cnn12", "target": "human TYK2 (JH2domain-pseudokinase) (Homo sapiens (Human))", "Kd": "0.2 to 1 nM"}

Please report the recorded Kd for CNc1cc(Nc2cccn(C3CCN(CCF)CC3)c2=O)nc2c(C(=O)N[C@H]3CC[C@@H]3O)cnn12 .
< 0.2 nM

Please report the recorded Kd for CNc1cc(Nc2cccn([C@H]3CCC[C@@H]3OC)c2=O)nc2c(C(=O)NC3CC3)cnn12 [I-403] .
0.2 to 1 nM

Please report the recorded Kd for CNc1cc(Nc2cccnc2OC2CC2)nc2c(C(=O)N[C@@H]3COC[C@@H]3O)cnn12 .
1 to 10 nM

Please report the recorded Kd for CNc1cc(Nc2cccn([C@@H]3C[C@H]3F)c2=O)nc2c(C(=O)N[C@H]3CC[C@@H]3OC)cnn12 .
< 0.2 nM

Please report the recorded Kd for CNc1cc(Nc2cccn([C@H]3CCC[C@@H](O)C3)c2=O)nc2c(C(=O)N[C@@H]3CC[C@H]3OC)cnn12 .
< 0.2 nM

Entry source: patent US10508120B2
